Values compiled from the supplement of paper PMC13380429.

- Tested on: Caco-2
- assay_remarks: drug sensitivity score (DSS) for viability; higher = more toxic; extreme values may be limits of the assay
- experimental_setup: 72 h
Documented drug sensitivity score across a set of compounds
readout_name: drug sensitivity score

INSERT INTO measurements (compound, target, readout_name, test_result) VALUES
  ('Cc1ccccc1NC(=N)Nc1ccccc1C', 'Caco-2', 'drug sensitivity score', 0.2),
  ('Cc1cc(C)cc(C(=O)O[C@H]2C[C@H]3CC[C@@H](C2)N3C)c1 [tropanyl-3,5-dimethylbenzoate]', 'Caco-2', 'drug sensitivity score', 0),
  ('COc1ccc(NS(=O)(=O)c2ccc(I)cc2)cc1N1CCN(C)CC1', 'Caco-2', 'drug sensitivity score', 0),
  ('O=S1(=O)c2cccc3cccc(c23)N1CCCN1CCN(c2ccc(F)cc2)CC1', 'Caco-2', 'drug sensitivity score', 0),
  ('NCCNS(=O)(=O)c1ccc(Cl)c2ccncc12', 'Caco-2', 'drug sensitivity score', 0.1);

###

- Tested on: U2OS
- assay_remarks: cell viability relative to DMSO; higher = less toxic
- experimental_setup: 72 h; 10 nM
Below, each of the molecules is paired with its reported cell viability value.
readout_name: cell viability (%)

INSERT INTO measurements (molecule, target, readout_name, test_result) VALUES
  ('COC(=O)[C@@H](N)CCCNC(=N)N[N+](=O)[O-] [L-NAME]', 'U2OS', 'cell viability', 97.9),
  ('CCOc1cc(N2CCC(O)CC2)ccc1Nc1ncc2c(n1)N(C)c1ccccc1C(=O)N2C [XMD8-92]', 'U2OS', 'cell viability', 105),
  ('CSCC[C@H](NC(=O)[C@H](CC(C)C)NC(=O)[C@@H](Cc1c[nH]c2ccccc12)NC(=O)[C@H](Cc1ccccc1)N(C)C(=O)[C@@H](Cc1c[nH]c2ccccc12)NC(=O)[C@@H](N)CCCNC(=N)N)C(N)=O [antagonist-g]', 'U2OS', 'cell viability', 93.1),
  ('Nc1ncnc2c1ncn2[C@@H]1O[C@H](COP(=O)(O)OP(=O)(O)OP(=O)(O)OP(=O)(O)OC[C@H]2O[C@@H](n3cnc4c(N)ncnc43)[C@H](O)[C@@H]2O)[C@@H](O)[C@H]1O [diadenosine-tetraphosphate]', 'U2OS', 'cell viability', 98.1),
  ('O=C(C=Cc1ccccc1)NC(NC(=S)Nc1ccc(Cl)cc1)C(Cl)(Cl)Cl (stereo not drawn) [sal003]', 'U2OS', 'cell viability', 94.6),
  ('CC(=O)O[C@H]1Cc2ccccc2N(C(N)=O)c2ccccc21 [eslicarbazepine-acetate]', 'U2OS', 'cell viability', 93.6),
  ('CCOC(=O)C1=C(C)NC(C)=C(C(=O)OC)[C@@H]1c1cccc([N+](=O)[O-])c1 (racemic) [nitrendipine]', 'U2OS', 'cell viability', 96.9),
  ('NCCNS(=O)(=O)c1ccc(Cl)c2ccncc12 [CKI-7]', 'U2OS', 'cell viability', 100);

###

- System: Calu-3
- assay_remarks: cell viability relative to DMSO; higher = less toxic
- experimental_setup: 72 h; 1 nM
Quick list: cell viability per entry.
readout_name: cell viability (%)

INSERT INTO assay_data (compound, test_result) VALUES
  ('NCCC(O)(P(=O)(O)O)P(=O)(O)O [pamidronate]', 92.7),
  ('CC(=O)Oc1ccccc1C(=O)Oc1ccccc1C(=O)O [acetylsalicylsalicylic-acid]', 95.3),
  ('c1ccc(-c2ccc(C(c3ccccc3)n3ccnc3)cc2)cc1 (centres undefined) [bifonazole]', 98.4),
  ('Nc1ncnc2c1ncn2[C@H]1O[C@@H](C(=O)N2CCN(CC(=O)Nc3cccc4c3CNC4=O)CC2)[C@H](O)[C@@H]1O [EB-47]', 92),
  ('O=C1NC(O)CCN1[C@@H]1O[C@H](CO)[C@@H](O)[C@H]1O (some centres undefined) [tetrahydrouridine]', 108),
  ('CCOC(=O)C1=C(C)NC(C)=C(C(=O)OC)[C@@H]1c1cccc([N+](=O)[O-])c1 (racemic) [nitrendipine]', 89.5),
  ('CNC(=O)c1ccc(C)c(-n2c(C)cc(OCc3ccc(F)cc3F)c(Br)c2=O)c1', 94.7),
  ('COc1ccc(S(=O)(=O)Nc2c(C)cc(C)cc2C)cc1', 103),
  ('O=C(Nc1ccccc1)[C@]12C[C@H]1/C(=N\O)c1ccccc1O2 [PHCCC]', 102),
  ('CC(=O)c1c(C)c2cnc(Nc3ccc(N4CCNCC4)cn3)nc2n(C2CCCC2)c1=O [palbociclib]', 101),
  ('CN=c1nc(-c2ccccc2)n(-c2ccccc2)s1', 110),
  ('COC(=O)CC[C@@H]1N=C(c2ccccn2)c2cc(Br)ccc2-n2c(C)cnc21 [remimazolam]', 104),
  ('CC(=O)NCCNc1cc(Cl)nn2c(-c3cccc(S(=O)(=O)N(C)C)c3)c(C)nc12 [MI-14]', 99.1),
  ('CCN(C(C)=O)c1cccc(-c2ccnc3c(C#N)cnn23)c1 [ZALEPLON]', 93.9),
  ('CO[C@H]1/C=C/O[C@@]2(C)Oc3c(C)c(O)c4c(O)c(c(/C=N/N=C/N5CCCCC5)c(O)c4c3C2=O)NC(=O)/C(C)=C\C=C\[C@H](C)[C@H](O)[C@@H](C)[C@@H](O)[C@@H](C)[C@H](OC(C)=O)[C@@H]1C', 107),
  ('Cc1noc(-c2ccc(-c3ccc(CC(=O)O)cc3)cc2)c1NC(=O)O[C@H](C)c1ccccc1 [AM095]', 114),
  ('COc1ccc(CCC(=O)c2c(O)cc(O[C@@H]3O[C@H](CO)[C@@H](O)[C@H](O)[C@H]3O[C@@H]3O[C@@H](C)[C@H](O)[C@@H](O)[C@H]3O)cc2O)cc1O [Neohesperidin dihydrochalcone (Nhdc)]', 108),
  ('Cc1cc(Oc2ccc3nc(COc4ccc(CC5SC(=O)NC5=O)cc4)n(C)c3c2)cc(C)c1N (centres undefined) [efatutazone]', 106),
  ('COc1cc(NC(C)CCCN)c2ncccc2c1 (centres undefined) [primaquine]', 104),
  ('O=C(Nc1cc(C(F)(F)F)cc(C(F)(F)F)c1)c1cnc(Cl)nc1C(F)(F)F', 98.3),
  ('COC(=O)C1=C(C)NC(C)=C([N+](=O)[O-])[C@@H]1c1ccccc1C(F)(F)F (racemic) [BAY-K-8644-(+/-)]', 101),
  ('O=[N+]([O-])c1cncn1CCN1CCOCC1 [nimorazole]', 102),
  ('Nc1ccccc1NC(=O)c1ccc(CNc2nccc(-c3cccnc3)n2)cc1 [mocetinostat]', 102),
  ('O=C1O[C@H]([C@@H](O)CO)C(O)=C1O [ASCORBIC ACID]', 105),
  ('O=c1cc(-c2ccc(O)c(O)c2)oc2cc(O)cc(O)c12 [luteolin]', 105),
  ('O=C1c2ccccc2S(=O)(=O)N1CCCCN1CCN(c2ncccn2)CC1 [ipsapirone]', 106),
  ('Cc1ccc(S(=O)(=O)Cc2nc(-c3ccc(C(=O)NCc4cccnc4)cc3)oc2C)cc1', 105),
  ('CC#CCn1c(N2CCC[C@@H](N)C2)nc2c1c(=O)n(Cc1nc(C)c3ccccc3n1)c(=O)n2C [linagliptin]', 95.9),
  ('NC(=O)c1nc(F)cnc1O [Favipiravir]', 101),
  ('C[C@@H]1CC(=O)NN=C1c1ccc(NN=C(C#N)C#N)cc1 [levosimendan]', 93.7),
  ('Cc1ccc(NC2=CC(=O)c3sc(C)nc3C2=O)cc1 [ryuvidine]', 115),
  ('Cc1cc(C)cc(C(=O)O[C@H]2C[C@H]3CC[C@@H](C2)N3C)c1 [tropanyl-3,5-dimethylbenzoate]', 99.7),
  ('CCOc1cc(N2CCC(O)CC2)ccc1Nc1ncc2c(n1)N(C)c1ccccc1C(=O)N2C [XMD8-92]', 90.2),
  ('CCOc1ccccc1C(=O)O [2-ethoxybenzoic-acid]', 113);
